All values here come from paper PMC5691035.

# measured target: Pfs25, monomeric, produced in Nicotiana benthamiana (Plasmodium falciparum (NF54; identical …, UniProt P13829)
# Sequence (P13829 22-193): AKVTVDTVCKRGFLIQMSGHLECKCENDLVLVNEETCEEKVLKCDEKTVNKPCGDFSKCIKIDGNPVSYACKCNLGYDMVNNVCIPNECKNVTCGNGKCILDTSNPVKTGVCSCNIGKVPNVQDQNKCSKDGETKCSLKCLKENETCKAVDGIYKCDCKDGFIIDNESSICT
# experimental details: BLI
# experimental conditions: both partners purified
Give fulfilled when the value for kon is at least 200000 M⁻¹ s⁻¹. Give not fulfilled when it is less.

>  <binder>
1266 Fab (Fab, V domains shown, source: HEK293F, transiently expressed, purified (LambdaSelect or KappaSelect, MonoS, Superdex 200)) VH: QVQLQQSGPGLVKPSQTLSLTCAISGDSVSSNSAAWNWIRQSPSRGLEWLGRTYYRSKWYNDYAVSVKSRITINADTSKNQFSLQLNSVTPEDTAVYYCVRDLLGSSGWYVFFDNWGQGTLVTVSS VL: SYELTQPPSVSVSPGQSARITCSGDALPMKYAYWYQQKSGQAPVLVIYEDSKRPSGIPERFSGSSSGTMATLTISGAQVEDEADYYCFSTDSSGNHRVFGGGTKLT

>  <group>
fulfilled

$$$$
>  <binder>
1267 Fab (Fab, V domains shown, source: HEK293F, transiently expressed, purified (LambdaSelect or KappaSelect, MonoS, Superdex 200)) VH: QVQLQQSGPGLVKPSQTLSLTCAISGDSVSSNSAAWNWIRQSPSRGLEWLGRTYYRSKWYNDYAVSVRGRITINPDTSKNHFSLQLNSVTPEDTAVYFCARDLMTNSGWYVYFDCWGQGTLVTVSS VL: SYELTQPPSVSVSPGQSARITCSGDALPMKYAYWYQQKSGQAPVLVIYEDSKRPSGIPERFSGSSSGTMATLTISGAQVEDEADYYCFSTDSSGNHRVFGGGTKLT

>  <group>
fulfilled

$$$$
>  <binder>
1262 Fab (Fab, V domains shown, source: HEK293F, transiently expressed, purified (KappaSelect or LambdaSelect, MonoS, Superdex 200)) VH: QVQLQESGPGLVKPSGTLSLTCAVSGGSISSSHWWSWVRQPPGKGLEWVGEISLSGSTHYGPSLKSRVSISLDKSMNHFSLRLSSVTAADTAVYYCARESRFYGAYFDYWGQGTLVTVSS VL: DIQLTQSPSFLSASVGDRVTITCWASQGINSYLAWYQQKPGKTPKLLIYAASTLQSGVPSRFSGSGSGTEFTLTISSLQPEDFATYYCQQLNSYPCSFGQGTTLEIK

>  <group>
not fulfilled

$$$$
>  <binder>
1268 Fab (Fab, V domains shown, source: HEK293F, transiently expressed, purified (KappaSelect or LambdaSelect, MonoS, Superdex 200)) VH: EVQLVESGGGLVKPGGSLRLSCAASGFTFSRYSMNWVRQAPGKGLEWVSSISSRSSYKYYVDSVKGRFTISRDNAKNSLYLQMNSLRAEDTAVYYCARDDYGSGSYYYNWLDPWGQGTLVTVSS VL: DIQLTQSPSFLSASVGDRVTITCWASQGISSFLAWYQQKPGKAPKLLIYAASTLESGVPSRFSGSGSGTEFTLTISSLQPEDFATYYCQQLNSYPRTFGQGTKVEIK

>  <group>
not fulfilled

$$$$
>  <binder>
1269 Fab (Fab, V domains shown, source: HEK293F, transiently expressed, purified (KappaSelect or LambdaSelect, MonoS, Superdex 200)) VH: EVQLVESGGGLVQSGGSLRLSCAASGFTFSRNAMNWVRQAPGKGLEWVSTISGSGDSTYYADSVKGRFTISRDNSKNTLYLQVNSLRAEDTAVYYCAKGDYYFDSGSYSFGMDVWGQGTTVTVSS VL: EIVLTQSPGTLSLSPGERATLSCRTSQSVSSSYLAWYQQKPGQAPRLLMYGASSRATGIPDRFSGSGSGTDFTLTISRLEPEDFAVYYCQQYGNSFGQGTRLEIK

>  <group>
fulfilled

$$$$
>  <binder>
1202 Fab (Fab, V domains shown, source: HEK293F, transiently expressed, purified (LambdaSelect or KappaSelect, MonoS, Superdex 200)) VH: QVQLVESGGDLVKPGGSLRLSCAASGFTFSDHYMNWIRQAPGKGLEWVSYISSSGSTIYYSDSVKGRFTISRDNAKYLLSLQMNSLRAEDTAVYFCARDPMVRGFHDAFDIWGQGTMVTVSS VL: SYELTQPPSVSVSPGQTASITCSGDKLGDKYASWYQQKPGQSPVLVIFQDNKRPSGIPERFSGSNSGNTATLTISETQAMDEADYYCQAWDISTAVFGTGTNVT

>  <group>
fulfilled

$$$$
